Reference for the values: patent US8242280B2

Assignment: determine reported IC50 for the given compounds.
- measured.target: unphosphorylated T315I Abl kinase domain (Mus musculus, UniProt P00520, T315I)
- Construct: purified and unphosphorylated T315I Abl kinase domain
- Sequence (P00520 242-493 T315I limits assumed): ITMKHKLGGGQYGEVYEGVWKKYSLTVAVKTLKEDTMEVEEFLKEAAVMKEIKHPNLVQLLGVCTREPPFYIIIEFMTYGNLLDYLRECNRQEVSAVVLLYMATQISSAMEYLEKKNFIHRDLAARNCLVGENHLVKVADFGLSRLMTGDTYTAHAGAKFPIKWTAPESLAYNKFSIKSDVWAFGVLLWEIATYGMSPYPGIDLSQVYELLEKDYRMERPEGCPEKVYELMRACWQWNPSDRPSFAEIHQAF
- test.details: c-Abl T315I 0P bioassay (pyruvate kinase/lactate dehydrogenase coupled enzyme assay)
- measurement.context: zero phosphorylation state (0P), 10 μM ATP, read-out: AbI T315I 0P IC50

The reported value for COc1ccccc1-c1n[nH]c2ncc(-c3cccc(C(=O)C(=O)N(C)CCN(C)C)c3)cc12 in terms of IC50 is < 50 nM

Given item COc1ccccc1-c1n[nH]c2ncc(-c3cccc(C(O)CO)c3)cc12 (centres unmarked) , the value recorded as its IC50 is < 50 nM

Measured IC50, COc1ccccc1-c1n[nH]c2ncc(-c3cccc(C(OC)C(=O)N(C)CCN(C)C)c3)cc12 (centres unmarked) : < 50 nM

Note to self: IC50 recorded for COc1ccccc1-c1c[nH]c2ncc(-c3ccnc(C(O)C(=O)N(C)C)n3)cc12 (centres unmarked) was 50 to 500 nM

The reported value for CN(C)C(=O)C(O)c1cncc(-c2cnc3[nH]cc(-c4cnc(N)s4)c3c2)c1 (centres unmarked) in terms of IC50 is < 50 nM

Measured IC50, COc1ccccc1-c1n[nH]c2ncc(-c3cccc(C(C)C(=O)N4CCC(O)C4)c3)cc12 (centres unmarked) : < 50 nM

Per the records, this compound ( CN(C)C(=O)C(O)c1cncc(-c2cnc3[nH]cc(-c4ccnn4CC(F)(F)F)c3c2)c1 (centres unmarked) ) has IC50 equal to > 500 nM

The compound listed as COc1ccccc1-c1c[nH]c2ncc(-c3cncc(C(O)C(N)=O)c3)cc12 (centres unmarked) shows IC50 equal to < 50 nM

The compound listed as COc1ccccc1-c1c[nH]c2ncc(-c3cccc(C(CC(=O)N(C)C)N4CCS(=O)(=O)CC4)c3)cc12 (centres unmarked) shows IC50 equal to > 500 nM

What the record says about COc1ccccc1-c1n[nH]c2ncc(-c3cccc([C@@H](C)O)c3)cc12 : IC50 is < 50 nM

Given item COc1ccccc1-c1n[nH]c2ncc(-c3cccc(C(C(=O)N4CCC(O)C4)N(C)C)c3)cc12 (centres unmarked) , the value recorded as its IC50 is 50 to 500 nM

# compound CN(C)C(=O)C(O)c1cncc(-c2cnc3[nH]cc(-c4cccc(Cl)c4)c3c2)c1 (centres unmarked) [drawing 431] ; its IC50 = < 50 nM

In plain terms, COc1ccccc1-c1n[nH]c2ncc(-c3cccc(C(N)C(=O)N4CC(O)C4)c3)cc12 (centres unmarked) has a documented IC50 of < 50 nM

IC50 in this record for CC[C@@H]1OCO[C@H]1c1cccc(-c2cnc3[nH]nc(-c4ccccc4OC)c3c2)c1 : < 50 nM

###

- measured.target: Ba/F3 cells, ABL1 T315I (Homo sapiens, UniProt P00519, T315I, cells depend on it)
- test.details: 96-well XTT cell survival assay, Ba/F3 ABL1 T315I
- Format: cell-based
- measurement.context: 72 hours, read-out: ABL1 T315I XTT [Ba/F3] IC50
Kindly supply the reported GI50 values for the records listed here.

Record COc1ccccc1-c1n[nH]c2ncc(-c3cccc(C(O)C(=O)N4CCC(O)C4)c3)cc12 (centres unmarked) , field GI50: > 1000 nM

# GI50 (compound: COc1ccccc1-c1c[nH]c2ncc(-c3cccc(C(N)C(=O)N(C)C)c3)cc12 (centres unmarked) ) is < 1000 nM

Just so you know, measured GI50 for COc1ncccc1-c1c[nH]c2ncc(-c3cncc(C(O)C(=O)N(C)C)c3)cc12 (centres unmarked) came out at > 1000 nM

Notebook: COc1ccccc1-c1n[nH]c2ncc(-c3cccc(C(OC)C(=O)N(C)C)c3)cc12 (centres unmarked) , GI50 read as < 1000 nM

Quick note, GI50 for COc1ccc(-c2c[nH]c3ncc(-c4cncc(C(O)C(=O)N(C)C)c4)cc23)cc1 (centres unmarked) landed at > 1000 nM

Short answer for CC[C@H](O)[C@@H](O)c1cccc(-c2cnc3[nH]nc(-c4ccccc4OC)c3c2)c1 : GI50 was < 1000 nM

According to the records, this compound COc1ccccc1-c1c[nH]c2ncc(-c3cccc(C(O)C(=O)N(C)C)c3)cc12 (centres unmarked) displays GI50 of < 1000 nM

Consider COc1ccccc1-c1c[nH]c2ncc(-c3cncc([C@@H](O)C(=O)N(C)C)c3)cc12 . Its measured GI50 is < 1000 nM

For this compound ( COc1ccccc1-c1c[nH]c2ncc(-c3cccc(C(F)C(=O)N(C)C)c3)cc12 (centres unmarked) ), measured GI50 is > 1000 nM

So, CN(C)C(=O)C(O)c1cncc(-c2cnc3[nH]cc(-c4ccc(C(N)=O)cc4)c3c2)c1 (centres unmarked) ? Its GI50 was > 1000 nM

GI50 reading for COc1ccc(F)cc1-c1c[nH]c2ncc(-c3cncc(C(O)C(=O)N(C)C)c3)cc12 (centres unmarked) : < 1000 nM

Lab note: COc1ccccc1-c1c[nH]c2ncc(-c3cncc(C(O)C(=O)N(C)Cc4ccncc4)c3)cc12 (centres unmarked) gave GI50 of > 1000 nM

// sample COc1ccccc1-c1n[nH]c2ncc(-c3cccc(C(C)C(=O)N4CCC(N(C)C)C4)c3)cc12 (centres unmarked) , its GI50 was < 1000 nM

Documented GI50 of COc1ccccc1-c1n[nH]c2ncc(-c3cccc(C(O)c4nccn4C)c3)cc12 (centres unmarked) : > 1000 nM
